TEST_TARGET: T1, Recombinant human TSLP-his (human, UniProt Q969D9 29-159)
T1 construct: Prepared in-house; Amine-coupled to CM5 chip in SPR, loaded on APS sensors in Octet, biotin-labeled in the capture ELISA, unlabeled in the cell functional assays; also called human TSLP-his protein
EXPERIMENT_DESCRIPTION: SPR, Biacore T200; below the instrument limit, roughly calculated from the sensorgram
READOUT_NAME: koff

INSERT INTO measurements (binder, data_value) VALUES
  ('hu1C5F12E9-V1 (antibody, human IgG4 S228P, kappa, V domains shown) VH: QVQLVQSGAEVKKPGASVKVSCKASGYTFTTYWMHWVRQAPGQGLEWIGVIDPSDSDTTYNQKFKGRATLTVDTSSSTAYMELSSLRSEDTAVYYCTRSLDGYYDYWGQGTLVTVSS VL: DIQMTQSPSSLSASVGDRVTITCRPTENIYSYLAWYQQKPGKSPKLLVYFARTLAEGVPSRFSGSGSGTDFTLTISSLQPEDFATYYCQHHYGTPWTFGGGTKVEIKR', '< 1e-05 s⁻¹');

INPUT: Name the reported koff value associated with the binder hu1C5F12E9-V16 (antibody, human IgG4 S228P, kappa, V domains shown) VH: QVQLVQSGAEVKKPGASVKVSCKASGYTFTTYWMHWVRQAPGQGLEWMGVIDPSDSDTTYNQKFKGRATMTRDTSTSTVYMELSSLRSEDTAVYYCTRSLDGYYDYWGQGTLVTVSS VL: DIQMTQSPSSLSASVGDRVTITCRPTENIYSYLAWYQQKPGKSPKLLIYFARTLAEGVPSRFSGSGSGTDFTLTISSLQPEDFATYYCQHHYGTPWTFGGGTKVEIKR
OUTPUT: ~1.17e-06 s⁻¹

INPUT: Name the reported koff value associated with the binder hu1C5F12E9-V3 (antibody, human IgG4 S228P, kappa, V domains shown) VH: QVQLVQSGAEVKKPGASVKVSCKASGYTFTTYWMHWVRQAPGQGLEWMGVIDPSDSDTTYNQKFKGRVTMTVDTSTSTVYMELSSLRSEDTAVYYCTRSLDGYYDYWGQGTLVTVSS VL: DIQMTQSPSSLSASVGDRVTITCRPTENIYSYLAWYQQKPGKSPKLLVYFARTLAEGVPSRFSGSGSGTDFTLTISSLQPEDFATYYCQHHYGTPWTFGGGTKVEIKR
OUTPUT: < 1e-05 s⁻¹

INPUT: Name the reported koff value associated with the binder hu1C5F12E9-V18 (antibody, human IgG4 S228P, kappa, V domains shown) VH: QVQLVQSGAEVKKPGASVKVSCKASGYTFTTYWMHWVRQAPGQGLEWMGVIDPSDSDTTYNQKFKGKATMTVDTSTSTVYMELSSLRSEDTAVYYCTRSLDGYYDYWGQGTLVTVSS VL: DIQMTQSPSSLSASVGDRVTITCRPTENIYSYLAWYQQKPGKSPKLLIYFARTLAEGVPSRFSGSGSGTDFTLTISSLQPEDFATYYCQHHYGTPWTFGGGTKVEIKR
OUTPUT: ~9.65e-06 s⁻¹

INPUT: Name the reported koff value associated with the binder hu1C5F12E9-V12 (antibody, human IgG4 S228P, kappa, V domains shown) VH: QVQLVQSGAEVKKPGASVKVSCKASGYTFTTYWMHWVRQAPGQGLEWMGVIDPSDSDTTYNQKFKGKATMTVDTSTSTVYMELSSLRSEDTAVYYCTRSLDGYYDYWGQGTLVTVSS VL: DIQMTQSPSSLSASVGDRVTITCRPTENIYSYLAWYQQKPGKAPKLLIYFARTLAEGVPSRFSGSGSGTDFTLTISSLQPEDFATYYCQHHYGTPWTFGGGTKVEIKR
OUTPUT: < 1e-05 s⁻¹

INPUT: Name the reported koff value associated with the binder hu1C5F12E9-V11 (antibody, human IgG4 S228P, kappa, V domains shown) VH: QVQLVQSGAEVKKPGASVKVSCKASGYTFTTYWMHWVRQAPGQGLEWMGVIDPSDSDTTYNQKFKGKATMTRDTSTSTVYMELSSLRSEDTAVYYCTRSLDGYYDYWGQGTLVTVSS VL: DIQMTQSPSSLSASVGDRVTITCRPTENIYSYLAWYQQKPGKAPKLLIYFARTLAEGVPSRFSGSGSGTDFTLTISSLQPEDFATYYCQHHYGTPWTFGGGTKVEIKR
OUTPUT: ~7.56e-07 s⁻¹

INPUT: Name the reported koff value associated with the binder hu1C5F12E9-V15 (antibody, human IgG4 S228P, kappa, V domains shown) VH: QVQLVQSGAEVKKPGASVKVSCKASGYTFTTYWMHWVRQAPGQGLEWMGVIDPSDSDTTYNQKFKGRVTMTVDTSTSTVYMELSSLRSEDTAVYYCTRSLDGYYDYWGQGTLVTVSS VL: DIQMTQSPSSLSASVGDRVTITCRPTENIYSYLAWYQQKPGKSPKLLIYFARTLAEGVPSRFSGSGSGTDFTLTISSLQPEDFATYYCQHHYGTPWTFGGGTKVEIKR
OUTPUT: ~3.63e-06 s⁻¹
